- Test system: human DGKα (Homo sapiens)
- Construct: TVMV protease cleavage site (C); Hexa-His (C); made in house; host or cells: Sf9 insect cells (baculovirus, Bac-to-Bac)
- Assay method text: DGKα LIPGLO assay (extruded liposome substrate), in vitro DGK inhibition
- Assay type: biochemical
- Protocol conditions: liposome (LIPGLO) assay; read-out: DGKa LIPGLO IC50
Attribute: IC50
Value kind: IC50

compound="COC(CN1C[C@H](C)N(c2cc(=O)n(C)c3ccc(C#N)nc23)C[C@H]1C)c1ccc(F)cc1 (stereo partly drawn) [Example 561]" test_system="human DGKα (Homo sapiens)" value_kind=IC50 observed_value="7100 nM"
compound="CC[C@H]1CN(C(C)c2ccc(C(F)(F)F)cc2F)[C@H](CC)CN1c1cc(=O)n(C)c2ccc(C#N)nc12 (single isomer, unassigned) [Example 1365]" test_system="human DGKα (Homo sapiens)" value_kind=IC50 observed_value="480 nM"
compound="CC(c1cc(OC(F)F)ccc1F)N1C[C@H](C)N(c2cc(=O)n(C)c3ccc(C#N)nc23)C[C@H]1C (single isomer, unassigned) [Example 1229]" test_system="human DGKα (Homo sapiens)" value_kind=IC50 observed_value="300 nM"

###

Listed here are compounds together with their documented pIC50.
- Test system: human DGKα (Homo sapiens)
- Construct: TVMV protease cleavage site (C); Hexa-His (C); made in house; host or cells: Sf9 insect cells (baculovirus, Bac-to-Bac)
- Assay method text: DGKα LIPGLO assay (extruded liposome substrate), in vitro DGK inhibition
- Assay type: biochemical
- Protocol conditions: liposome (LIPGLO) assay; read-out: DGKa LIPGLO IC50
pIC50: −log10 of the molar value.
Value kind: pIC50

compound="CC[C@H]1CN(C(C)c2ccc(F)cc2)[C@H](CC)CN1c1cc(=O)n(C)c2ccc(C#N)nc12 (single isomer, unassigned) [Example 1049]" reported_relation== observed_value=7.82
compound="CC(c1ccc(C2CC2)cc1)N1C[C@H](C)N(c2cc(=O)n(C)c3ccc(C#N)nc23)C[C@H]1C (single isomer, unassigned) [Example 1214]" reported_relation== observed_value=7.12
compound="C[C@@H]1CN(c2cc(=O)n(C)c3ccc(C#N)nc23)[C@@H](C)CN1C(c1ccc(F)cc1)c1ccncn1 (single isomer, unassigned) [Example 402]" reported_relation== observed_value=6.09
compound="Cc1ccc(C(c2cccc3c2OCCCO3)N2C[C@H](C)N(c3cc(=O)n(C)c4ccc(C#N)nc34)C[C@H]2C)nc1 (single isomer, unassigned) [Example 451]" reported_relation== observed_value=4.62
compound="CC(c1ccc(F)cc1)N1C[C@@H](C)N(c2cc(=O)n(C)c3ccc(C#N)nc23)C[C@@H]1CO (single isomer, unassigned) [Example 1179]" reported_relation=< observed_value=3.60
compound=C[C@@H]1CN(c2cc(=O)n(C)c3ccc(C#N)nc23)[C@@H](C)CN1Cc1ccc(OC(F)F)cc1F reported_relation== observed_value=6.48

###

- Test system: human DGKα (Homo sapiens, UniProt P23743)
- Construct: TVMV protease cleavage site (C); Hexa-His (C); made in house; host or cells: Sf9 insect cells (baculovirus, Bac-to-Bac)
- Sequence (P23743 with tags, fused parts or gaps): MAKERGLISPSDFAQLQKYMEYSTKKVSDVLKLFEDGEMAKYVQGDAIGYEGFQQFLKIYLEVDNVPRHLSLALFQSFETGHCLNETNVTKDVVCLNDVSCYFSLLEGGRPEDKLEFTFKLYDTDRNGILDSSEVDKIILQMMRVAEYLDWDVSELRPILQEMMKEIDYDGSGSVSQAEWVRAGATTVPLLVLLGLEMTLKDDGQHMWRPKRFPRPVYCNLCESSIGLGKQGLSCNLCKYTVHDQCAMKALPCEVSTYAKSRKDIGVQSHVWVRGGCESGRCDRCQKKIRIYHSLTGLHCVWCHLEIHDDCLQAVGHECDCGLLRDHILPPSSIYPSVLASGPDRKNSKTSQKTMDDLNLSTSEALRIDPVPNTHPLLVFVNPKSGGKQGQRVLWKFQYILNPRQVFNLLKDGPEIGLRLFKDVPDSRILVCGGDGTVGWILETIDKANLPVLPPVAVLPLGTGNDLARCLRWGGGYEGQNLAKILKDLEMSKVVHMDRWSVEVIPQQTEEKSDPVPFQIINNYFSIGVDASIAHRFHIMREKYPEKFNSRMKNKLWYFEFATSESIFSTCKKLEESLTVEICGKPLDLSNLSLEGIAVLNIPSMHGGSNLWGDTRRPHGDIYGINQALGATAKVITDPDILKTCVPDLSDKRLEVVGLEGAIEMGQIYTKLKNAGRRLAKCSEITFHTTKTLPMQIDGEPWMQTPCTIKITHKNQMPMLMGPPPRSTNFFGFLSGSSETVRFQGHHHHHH
- Assay method text: DGKα LIPGLO assay (extruded liposome substrate), in vitro DGK inhibition
- Type: biochemical
- Protocol conditions: liposome (LIPGLO) assay; read-out: DGKa LIPGLO IC50
pIC50: −log10 of the molar value. Where a name gives a salt, the structure may show the parent alone.
Record MET whenever pIC50 is at 5 or higher; record NOT MET when lower.

molecule="Cc1ccc(C(c2ccc(C#N)cc2)N2C[C@H](C)N(c3cc(=O)n(C)c4ccc(C#N)nc34)C[C@H]2C)cc1 (single isomer, unassigned) [Example 310, TFA salt]" test_system="human DGKα (Homo sapiens, UniProt P23743)" group=MET
molecule="C[C@@H]1CN(c2cc(=O)n(C)c3ccc(C#N)nc23)[C@@H](C)CN1C(c1ccc(F)cc1)c1cnsc1 (single isomer, unassigned) [Example 716]" test_system="human DGKα (Homo sapiens, UniProt P23743)" group=MET
molecule="CC(=O)NC[C@@H]1CN(c2cc(=O)n(C)c3ccc(C#N)nc23)[C@@H](C)CN1C(c1ccc(F)cc1)c1ccc(F)cc1 [Example 1165]" test_system="human DGKα (Homo sapiens, UniProt P23743)" group=MET
molecule="COC(=O)C1CN(c2c(Cl)c(=O)n(C)c3ccc(C#N)nc23)CCN1C(c1ccc(F)cc1)c1ccc(F)cc1 (single isomer, unassigned) [Example 77]" test_system="human DGKα (Homo sapiens, UniProt P23743)" group="NOT MET"
molecule="CC(c1ccc2c(c1)OC(F)(F)O2)N1C[C@H](C)N(c2cc(=O)n(C)c3ccc(C#N)nc23)C[C@H]1C (single isomer, unassigned) [Example 654]" test_system="human DGKα (Homo sapiens, UniProt P23743)" group=MET
molecule="Cn1c(=O)cc(N2CCN(C(c3ccc(F)cc3)c3ccc(F)cc3)C(C(=O)NC3CC3)C2)c2nc(C#N)ccc21 (single isomer, unassigned) [Example 47]" test_system="human DGKα (Homo sapiens, UniProt P23743)" group="NOT MET"
molecule="C[C@@H]1CN(c2c(F)c(=O)n(C)c3ccc(C#N)nc23)[C@@H](C)CN1C(c1ccc(Cl)cc1)c1ccc(OC(F)(F)F)cc1 (stereo partly drawn) [Example 324]" test_system="human DGKα (Homo sapiens, UniProt P23743)" group=MET
molecule="Cc1nccc(C(c2ccc(F)cc2)N2CCN(c3c(C#N)c(=O)n(C)c4ccc(C#N)nc34)C[C@H]2C)n1 (stereo partly drawn) [Example 315]" test_system="human DGKα (Homo sapiens, UniProt P23743)" group=MET
molecule="C[C@@H]1CN(c2cc(=O)n(C)c3ccc(C#N)nc23)[C@@H](C)CN1C(c1ccc(F)c(F)c1)c1ccccn1 (single isomer, unassigned) [Example 376]" test_system="human DGKα (Homo sapiens, UniProt P23743)" group=MET
molecule="CC[C@@H]1CN(c2c(F)c(=O)n(C)c3ccc(C#N)nc23)CCN1C(c1ccc(Cl)cc1)c1ccc(Cl)cc1 [Example 178]" test_system="human DGKα (Homo sapiens, UniProt P23743)" group=MET
molecule="CCc1cc(F)ccc1C(c1ccc(Cl)cc1)N1C[C@H](C)N(c2cc(=O)n(C)c3ccc(C#N)nc23)C[C@H]1C (single isomer, unassigned) [Example 226]" test_system="human DGKα (Homo sapiens, UniProt P23743)" group="NOT MET"

Data origin: patent US10669272B2
